The compounds listed here are annotated with their IC50.
Biological target: Diphosphomevalonate decarboxylase (Streptococcus pneumoniae serotype 2 (strain D39 / NCTC 7466))
Test: diphosphomevalonate decarboxylase inhibition dose curves – biochemical, PK/LDH-coupled NADH fluorescence, hexokinase coupling counter-screen, dose response (AID 550)

{"CHEM_SMILES": "COc1ccc(N2C(C)=CS/C2=C(/C#N)c2nnc(N3CCOCC3)n2-c2ccccc2)cc1", "IC50": "> 10 mM"}
{"CHEM_SMILES": "COC(=O)c1cc2occc2n1CC(=O)Nc1ccc(OC)c(OC)c1OC", "IC50": "> 10 mM"}

Consider the compound shown here: COC(=O)c1c(C(=O)OC)c2ccncn2c1Cl What is its recorded IC50?
0.0268 mM

Quick check: IC50 of Cc1noc(C)c1CSc1nc2ccccc2s1 ?
> 10 mM

Look up IC50: Cc1ccc(C2C3=C(CC(C)(C)CC3=O)N(CCN3CCOCC3)C3=C2C(=O)CC(C)(C)C3)cc1
> 10 mM

# lookup: IC50 of Cc1cc(=O)[nH]c2ccccc12
> 10 mM

###

Biological target: Diphosphomevalonate decarboxylase (Streptococcus pneumoniae serotype 2 (strain D39 / NCTC 7466), UniProt A0A0H2ZN59)
Sequence (A0A0H2ZN59 whole entry): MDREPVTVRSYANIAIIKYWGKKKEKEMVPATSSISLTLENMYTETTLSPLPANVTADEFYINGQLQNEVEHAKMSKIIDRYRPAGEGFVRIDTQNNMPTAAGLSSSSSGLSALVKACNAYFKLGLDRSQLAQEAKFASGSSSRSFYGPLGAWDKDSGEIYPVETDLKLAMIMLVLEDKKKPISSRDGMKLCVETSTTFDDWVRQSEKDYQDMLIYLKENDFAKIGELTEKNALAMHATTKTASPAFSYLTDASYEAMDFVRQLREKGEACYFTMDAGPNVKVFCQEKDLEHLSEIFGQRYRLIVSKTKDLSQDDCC
Assay: diphosphomevalonate decarboxylase inhibition dose curves – biochemical, PK/LDH-coupled NADH fluorescence, hexokinase coupling counter-screen, dose response (AID 550)
pIC50: −log10 of the molar value.
VALUE_TYPE: pIC50

The cases that follow already have their pIC50 on record.
{"MOLECULE": "CC(C)(C)CC(=O)Nc1nnc(-c2cccs2)s1", "VALUE_TYPE": "pIC50", "RESULT": "< 2.00"}
{"MOLECULE": "Cc1ccccc1Cc1c(C)nc2c(C(=O)N3CCN(Cc4ccc5c(c4)OCO5)CC3)cnn2c1C", "VALUE_TYPE": "pIC50", "RESULT": "< 2.00"}
{"MOLECULE": "COc1ccc(C2C3=C(OC(C)=O)c4ccccc4C3=Nc3c2c(=O)n(C)c(=O)n3C)cc1 (stereo unspecified)", "VALUE_TYPE": "pIC50", "RESULT": "< 2.00"}

// lookup pIC50 for O=S(=O)(Nc1ccc(C(F)(F)F)cc1)c1c[nH]cn1
< 2.00

Tell me the measured pIC50 of Cc1nc(NCCN)c(C#N)c2c1COC(C)(C)C2 , please.
4.13

Fill in: pIC50 of Cc1cccc(C)c1NC(=O)C(c1ccccc1)N1CCN(C(=O)c2ccco2)CC1 (stereo unspecified) is ___
< 2.00

Using the record for CC(O)COc1ccc(C(N=O)c2ccccc2)cc1 (stereo unspecified) , report its pIC50.
< 2.00

Could you share which pIC50 value was measured for Nc1c(C(=O)NC2CCCC2)c2nc3ccccc3nc2n1N=Cc1cccnc1 ?
4.77

Can you look up the measured pIC50 of O=c1c2ccccc2sn1-c1ccc(S(=O)(=O)N2CCCC2)cc1 for me?
5.58

Name the reported pIC50 value associated with the molecule COc1cccc(C(=O)OCn2nnc3ccccc3c2=O)c1
< 2.00

Entry Cc1ccc2nc(-c3ccc(SCC(=O)O)nc3)[nH]c2c1 has what pIC50?
5.01

// query pIC50 value for entry COc1ccc(-c2nsc3c(N4CCN(C(=O)c5ccco5)CC4)ncnc23)cc1
3.88

Query: pIC50; subject: Nc1c(C(=O)NCCN2CCOCC2)c2nc3ccccc3nc2n1-c1ccc2c(c1)OCO2
4.06

Given O=C(CN1c2cccc3cccc(c23)S1(=O)=O)N1CCOCC1 , state its recorded pIC50.
4.66

Any idea what pIC50 was measured for O=C(C1CCCCC1)N1CCC(c2nc3c(nnn3Cc3ccccc3Cl)c(=O)[nH]2)CC1 ?
< 2.00

# get_value(readout='pIC50', item= COc1cc(C2C3=C(CC(C)(C)CC3=O)N=C(C)C2C#N)cc(OC)c1O (stereo unspecified) )
< 2.00

Given the entry Cc1nc2oc3c(NCc4ccccn4)ncnc3c2c2c1COC(C)(C)C2 , report its measured pIC50.
< 2.00

Reported pIC50 for O=C(O)c1c(-c2ccccc2)c2oc3ccccc3c2[nH]c1=O : what is it?
4.77

Give the measured pIC50 of CCc1ccc(NC(=O)c2cnc3scc(C)n3c2=O)cc1 .
< 2.00

Query (molecule): COc1ccc(CCn2c(N)c(S(=O)(=O)c3cccs3)c3nc4ccccc4nc32)cc1OC ; field requested: pIC50
3.98

For the molecule CCN(CCNC(=O)C1CCN(c2nnc(-n3cccc3)s2)CC1)c1ccccc1 , what pIC50 is on record?
< 2.00

Given the molecule CC1(C)C(C=C(Cl)Cl)C1C(=O)N1CCN(c2ccccc2)CC1 (stereo unspecified) , what is its reported pIC50?
< 2.00

Given the molecule O=C(CSc1ncnc2c1cnn2-c1ccccc1)Nc1ccc2c(c1)OCO2 , what is its reported pIC50?
< 2.00

Could you tell me which pIC50 is on file for COc1ccccc1-c1nc(C(N)=O)c2[nH]c(=O)n(-c3cccc(C)c3)c2n1 ?
4.67

Report pIC50 for Cc1cc(=O)oc2cc(OC(C)C(=O)O)c(Cl)cc12 (stereo unspecified) please.
< 2.00

Item CCOc1ccc(N(CC(=O)Nc2ccc(F)c(F)c2)S(=O)(=O)c2c(C)noc2C)cc1 has what recorded pIC50?
< 2.00
